In this section we review reported protein stability index values for a set of variants.
B1: KLHL12 (parent)
chain: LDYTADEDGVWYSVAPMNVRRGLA

variants of: B1; test: protein stability index of a GFP-peptide fusion (GPS, HEK-293T) (PSI 1-6); higher = more stable; conditions: c terminus: a fixed tail appended;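 further: lentivirally expressed fusions sorted by FACS into six bins by GFP to DsRed ratio, PSI derived from sequencing read proportions per bin multiplied by bin number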
Please reply with the number alone, leaving off any unit.

Solved cases (4 shown):
- V10E: 3.37
- A15F: 1.82
- V14T: 3
- L23Y: 1.99

// protein stability index lookup, variant = L23V , result: 1.79

Form field protein stability index, entry G22F : 1.51

Summary for this variant, V10K : protein stability index is 3.18

This collection of values is drawn from the supplement of paper PMC10567573.
